Cited source for all entries: ChEMBL document CHEMBL5034005

Would you mind telling me the reported inhibition of each entry?
target_or_system: Serine/threonine-protein kinase PAK 4 (Homo sapiens, UniProt O96013)
Sequence (O96013 whole entry, looked up): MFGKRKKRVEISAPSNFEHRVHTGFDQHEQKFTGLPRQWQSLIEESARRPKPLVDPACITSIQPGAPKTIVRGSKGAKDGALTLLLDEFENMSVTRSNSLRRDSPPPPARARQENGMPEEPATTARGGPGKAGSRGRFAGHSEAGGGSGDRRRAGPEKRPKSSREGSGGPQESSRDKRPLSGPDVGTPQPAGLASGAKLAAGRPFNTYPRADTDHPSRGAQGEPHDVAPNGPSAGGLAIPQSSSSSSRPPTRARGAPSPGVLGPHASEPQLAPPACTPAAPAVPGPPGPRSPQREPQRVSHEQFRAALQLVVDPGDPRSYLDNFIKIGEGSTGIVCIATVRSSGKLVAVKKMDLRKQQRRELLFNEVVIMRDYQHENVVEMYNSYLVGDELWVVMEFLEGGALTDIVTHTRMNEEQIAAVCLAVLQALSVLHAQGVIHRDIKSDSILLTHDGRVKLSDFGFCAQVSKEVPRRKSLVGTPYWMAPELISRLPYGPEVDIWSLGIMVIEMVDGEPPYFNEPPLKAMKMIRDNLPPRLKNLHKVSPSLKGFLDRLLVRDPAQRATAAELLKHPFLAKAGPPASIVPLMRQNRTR
method_description: Inhibition of PAK4 (unknown origin) at 200 uM by ADP hunter plus assay
Just the number please, in %, no unit attached.

Problem: API: value(readout=inhibition, system=Serine/threonine-protein kinase PAK 4 (Homo sapiens, UniProt O96013)) for record `Cc1ccc(/C=C2/C(=O)Nc3ccccc32)o1`
Solution: 28

Problem: API: value(readout=inhibition, system=Serine/threonine-protein kinase PAK 4 (Homo sapiens, UniProt O96013)) for record `Nc1nc2[nH]ccc2c(=O)[nH]1`
Solution: 61

Problem: API: value(readout=inhibition, system=Serine/threonine-protein kinase PAK 4 (Homo sapiens, UniProt O96013)) for record `O=c1[nH]cnc2[nH]nc(-c3ccccc3)c12`
Solution: 46

Problem: API: value(readout=inhibition, system=Serine/threonine-protein kinase PAK 4 (Homo sapiens, UniProt O96013)) for record `Cn1cc(-c2cc(C(=O)O)n[nH]2)cn1`
Solution: 6

Problem: API: value(readout=inhibition, system=Serine/threonine-protein kinase PAK 4 (Homo sapiens, UniProt O96013)) for record `Nc1ncc(Cl)c2sccc12`
Solution: 23

Problem: API: value(readout=inhibition, system=Serine/threonine-protein kinase PAK 4 (Homo sapiens, UniProt O96013)) for record `COc1ccc(-c2cc(N)nc(N)n2)cc1`
Solution: 7

Problem: API: value(readout=inhibition, system=Serine/threonine-protein kinase PAK 4 (Homo sapiens, UniProt O96013)) for record `Cn1c(Br)c(C#N)c2c(N)ncnc21`
Solution: 55

Problem: API: value(readout=inhibition, system=Serine/threonine-protein kinase PAK 4 (Homo sapiens, UniProt O96013)) for record `COc1ccc(-c2cc(N)[nH]n2)cc1`
Solution: 48
